- Measured target: T1, human natriuretic peptide receptor-A (human, UniProt P16066 33-1061)
- T1 construct: whole, on cells; also called hNPR-A; human NPR-A
- T1 sequence (looked up): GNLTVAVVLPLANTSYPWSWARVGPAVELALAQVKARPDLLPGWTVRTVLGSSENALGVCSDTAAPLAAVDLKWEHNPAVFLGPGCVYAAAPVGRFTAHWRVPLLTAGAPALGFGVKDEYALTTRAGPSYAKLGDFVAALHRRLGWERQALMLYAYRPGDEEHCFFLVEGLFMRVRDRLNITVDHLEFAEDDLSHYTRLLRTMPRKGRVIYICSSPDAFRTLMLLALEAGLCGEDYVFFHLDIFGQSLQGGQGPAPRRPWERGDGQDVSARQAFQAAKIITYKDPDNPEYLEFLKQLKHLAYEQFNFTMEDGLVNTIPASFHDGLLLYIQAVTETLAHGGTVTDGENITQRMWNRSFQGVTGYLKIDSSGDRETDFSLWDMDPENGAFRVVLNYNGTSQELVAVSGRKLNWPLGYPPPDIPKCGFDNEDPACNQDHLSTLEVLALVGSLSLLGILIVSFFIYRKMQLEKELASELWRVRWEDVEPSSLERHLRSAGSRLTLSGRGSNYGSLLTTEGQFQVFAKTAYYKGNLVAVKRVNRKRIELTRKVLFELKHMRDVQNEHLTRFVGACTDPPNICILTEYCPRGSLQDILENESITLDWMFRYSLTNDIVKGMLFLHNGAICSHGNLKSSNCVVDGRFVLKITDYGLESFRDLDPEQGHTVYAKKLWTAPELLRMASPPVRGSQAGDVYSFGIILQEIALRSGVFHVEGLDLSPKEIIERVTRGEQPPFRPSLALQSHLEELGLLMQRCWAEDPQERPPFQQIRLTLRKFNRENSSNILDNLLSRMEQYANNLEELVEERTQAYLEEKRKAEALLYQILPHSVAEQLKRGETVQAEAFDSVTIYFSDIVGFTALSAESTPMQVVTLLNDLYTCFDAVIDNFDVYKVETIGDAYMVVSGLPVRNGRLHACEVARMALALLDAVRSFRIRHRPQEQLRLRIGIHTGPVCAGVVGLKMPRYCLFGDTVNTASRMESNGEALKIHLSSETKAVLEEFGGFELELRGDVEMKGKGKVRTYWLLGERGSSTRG
- Method summary: competition binding, Table I; tracer and receptor format not given
Bridges are numbered along the chain shown (N, C = ends). Where no end group is shown, it is not given here. [ ]: non-standard residue; d: D form. Mpa = O=C(O)CCS
Readout kind: IC50 (nM)
Give your result in nM as a bare value.

[
  {
    "Binder": "SLRRSSC[dA]FTGSIDRIRAQSGLGCNSFRY (disulfide 7-24) [ANF 75]",
    "IC50 [nM]": 2.08
  }
]

Recorded IC50 of [Mpa]F[dT]GSIDRIRAQSGLGCNSFRY (disulfide 1-17) [ANF 80] , please. 0.423

Recorded IC50 of SLRRSSC[dS]FTGSIDRIRAQSGLGCNSFRY (disulfide 7-24) [ANF 74] , please. 29.4
